# System: MDA-MB-231
# Measurement protocol: Cytotoxic activity in human MDA-MB-231 cells by sulforhodamine B assay
# Type: functional
Measured metric: CC50 (µM)

Test smiles: C=C(C)[C@@H]1CC[C@]2(C(=O)O)CC[C@]3(C)[C@H](CC[C@@H]4[C@@]5(C)CCC(=O)C(C)(C)[C@@H]5CC[C@]43C)[C@@H]12
Tested system: MDA-MB-231
Measured metric: CC50
Comparison operator: =
Measured: 60.9

Test smiles: C=C(C)[C@@H]1CC[C@]2(CO)CC[C@]3(C)[C@H](CC[C@@H]4[C@@]5(C)CCC(=O)C(C)(C)[C@@H]5CC[C@]43C)[C@@H]12
Tested system: MDA-MB-231
Measured metric: CC50
Comparison operator: =
Measured: 136

Test smiles: C=C(C)[C@@H]1CC[C@]2(C)CC[C@]3(C)[C@H](CC[C@@H]4[C@@]5(C)CCC(=O)C(C)(C)[C@@H]5CC[C@]43C)[C@@H]12
Tested system: MDA-MB-231
Measured metric: CC50
Comparison operator: >
Measured: 500

Test smiles: C=C(C)[C@@H]1CC[C@]2(CO)CC[C@]3(C)[C@H](CC[C@@H]4[C@@]5(C)CC[C@H](O)C(C)(C)[C@@H]5CC[C@]43C)[C@@H]12
Tested system: MDA-MB-231
Measured metric: CC50
Comparison operator: >
Measured: 500

Test smiles: C=C(C)[C@@H]1CC[C@]2(C(=O)O)CC[C@]3(C)[C@H](CC[C@@H]4[C@@]5(C)CC[C@H](O)C(C)(C)[C@@H]5CC[C@]43C)[C@@H]12
Tested system: MDA-MB-231
Measured metric: CC50
Comparison operator: =
Measured: 94.3
